# assay-target: human P2X7 (Homo sapiens (Human), UniProt Q99572)
# Sequence (Q99572 whole entry): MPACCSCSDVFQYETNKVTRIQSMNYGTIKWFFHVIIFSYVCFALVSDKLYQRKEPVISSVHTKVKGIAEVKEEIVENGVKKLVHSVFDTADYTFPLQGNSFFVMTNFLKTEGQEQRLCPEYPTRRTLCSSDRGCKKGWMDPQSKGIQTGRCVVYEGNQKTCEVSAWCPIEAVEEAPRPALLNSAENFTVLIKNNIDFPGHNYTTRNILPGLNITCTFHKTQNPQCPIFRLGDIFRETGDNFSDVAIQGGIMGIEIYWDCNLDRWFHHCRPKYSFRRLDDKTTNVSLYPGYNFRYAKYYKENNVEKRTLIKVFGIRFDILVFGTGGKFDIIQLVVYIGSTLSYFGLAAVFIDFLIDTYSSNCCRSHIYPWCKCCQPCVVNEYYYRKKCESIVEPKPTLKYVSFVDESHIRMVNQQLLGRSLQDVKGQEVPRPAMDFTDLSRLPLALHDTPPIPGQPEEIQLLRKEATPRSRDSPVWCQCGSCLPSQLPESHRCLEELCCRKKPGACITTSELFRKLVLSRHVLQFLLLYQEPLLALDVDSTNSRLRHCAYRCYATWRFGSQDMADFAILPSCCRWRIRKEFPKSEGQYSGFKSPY
# assay-name: P2X7 antagonism in human PBMCs (IL-1β release after LPS + Bz-ATP, ELISA)
# Type: cell-based
# experimental-setup: human PBMCs, test compound 10 μM
observed-property: PBMC 10 μM (% control)
Provide the reading as a plain figure in % control.

Here are 3 compounds together with their reported answers.
>  <compound>
Cc1c(C(=O)N2Cc3nnn(-c4ncc(F)cn4)c3C[C@H]2C)cccc1C(F)(F)F (single isomer, unassigned)

>  <val>
45.0

$$$$
>  <compound>
Cc1cc(-n2nnc3c2CCN(C(=O)c2cc(C(F)(F)F)ccc2Cl)C3C)ncc1F (centres unmarked)

>  <val>
98.2

$$$$
>  <compound>
Cc1cc(-n2nnc3c2CCN(C(=O)c2cccc(C(F)(F)F)c2Cl)[C@H]3C)ncc1F (single isomer, unassigned)

>  <val>
87.3

$$$$

Prompt line: Any idea what PBMC 10 μM (% control) was measured for C[C@@H]1c2ncn(-c3ncc(F)cn3)c2CCN1C(=O)c1cccc(C(F)(F)F)c1Cl (single isomer, unassigned) ?
Response line: 1.4

Prompt line: What does the data say about its PBMC 10 μM (% control)? Entry: Cc1cccnc1-n1nnc2c1CCN(C(=O)c1cccc(C(F)(F)F)c1Cl)[C@@H]2C (single isomer, unassigned)
Response line: −7.1

Prompt line: Need PBMC 10 μM (% control) of C[C@@H]1c2nnn(-c3ncccn3)c2CCN1C(=O)c1cccc(C(F)(F)F)c1F (single isomer, unassigned) , thanks.
Response line: 14.3

Prompt line: Requested read-out: PBMC 10 μM (% control). Entry: COCCn1ccc(-n2nnc3c2CCN(C(=O)c2cccc(C(F)(F)F)c2Cl)[C@H]3C)n1 (single isomer, unassigned)
Response line: 5.1

Prompt line: If you can, please state the reported PBMC 10 μM (% control) value of C[C@H]1Cc2c(nnn2-c2ccn[nH]2)CN1C(=O)c1cccc(C(F)(F)F)c1Cl (single isomer, unassigned) .
Response line: 0.6

Prompt line: Need PBMC 10 μM (% control) of C[C@@H]1c2nnn(-c3cccc(C(F)(F)F)n3)c2CCN1C(=O)c1cccc(C(F)(F)F)c1Cl (single isomer, unassigned) , thanks.
Response line: 3.8
